Numbers sourced from ChEMBL document CHEMBL1201861.

- System: DG-75;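 note: growth inhibition of DG-75 cells, read out with a cell viability assay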
- Assay Overview: cells
- Format: functional, cell-based, Homo sapiens
- Measurement Conditions: Homo sapiens, DG-75
- Description: SANGER: Inhibition of human DG-75 cell growth in a cell viability assay.
pIC50: −log10 of the molar value. Structures can show the parent of a compound that is named as a salt.
Property Label: pIC50

- Molecule: "C#Cc1cccc(Nc2ncnc3cc(OCCOC)c(OCCOC)cc23)c1 [ERLOTINIB]"
  Property Label: "pIC50"
  Modifier: "<"
  Number: 5.70
- Molecule: "COC1=CC(c2cc3ccccc3[nH]2)=N/C1=C\\c1[nH]c(C)cc1C [OBATOCLAX MESYLATE]"
  Property Label: "pIC50"
  Modifier: "="
  Number: 5.16
- Molecule: "OCCCNc1cc(-c2ccnc(Nc3cccc(Cl)c3)n2)ccn1"
  Property Label: "pIC50"
  Modifier: "="
  Number: 6.96
- Molecule: "N#Cc1c(O)c2c(-c3ccc(-c4ccccc4O)cc3)csc2[nH]c1=O"
  Property Label: "pIC50"
  Modifier: "<"
  Number: 5.99
- Molecule: "COc1cccc2c1C(=O)c1c(O)c3c(c(O)c1C2=O)C[C@@](O)(C(=O)CO)C[C@@H]3O[C@H]1C[C@H](N)[C@H](O)[C@H](C)O1 [DOXORUBICIN]"
  Property Label: "pIC50"
  Modifier: "="
  Number: 6.18
- Molecule: "Nc1ccn([C@@H]2O[C@H](CO)[C@@H](O)C2(F)F)c(=O)n1 [GEMCITABINE]"
  Property Label: "pIC50"
  Modifier: "<"
  Number: 5.99
- Molecule: "COc1cc(N2CCN(C)CC2)ccc1Nc1ncc2c(n1)N(C)c1ccccc1C(=O)N2C"
  Property Label: "pIC50"
  Modifier: "="
  Number: 5.25
- Molecule: "N[C@@H](CSC(c1ccccc1)(c1ccccc1)c1ccccc1)C(=O)O [S-TRITYL-L-CYSTEINE]"
  Property Label: "pIC50"
  Modifier: "<"
  Number: 5.29
